System: 935938-334-R-J1-PDC complex spheroid viability
Assay: Anticancer human tumor 935938-334-R-J1-PDC patient-derived small intestine adenocarcinoma cell line growth inhibition [POLQ]
Details: second compound 10 µM; first compound 10 µM; active compounds read low
Entries and their viability, T/C
observed_property: viability, T/C

C#Cc1c(F)ccc2cc(O)cc(-c3ncc4c(N5CC6CCC(C5)N6)nc(OCC56CCCN5CC(F)C6)nc4c3F)c12 (stereo not given) + Cc1cccc(N(C)C(=O)C2C(O)CCN2c2nc(C)cc(C(F)(F)F)c2C#N)c1    29.6%
CC(C)n1c(=O)n(C)c2cnc3cc(F)c(-c4ccc(OCCCN5CCCCC5)nc4)cc3c21 + Cc1cccc(N(C)C(=O)C2C(O)CCN2c2nc(C)cc(C(F)(F)F)c2C#N)c1    80.1%
CC(C)n1c(=O)n(C)c2cnc3cc(F)c(-c4ccc(OCCCN5CCCCC5)nc4)cc3c21 + COC1C(OC(N)=O)C(O)C(Oc2ccc3c(O)c(NC(=O)c4ccc(O)c(CC=C(C)C)c4)c(=O)oc3c2C)OC1(C)C    101%
Nc1ccn(C2OC(CO)C(O)C2(F)F)c(=O)n1 (stereo not given) + Nc1ccc(C#CCN(C(=O)Cc2ncc(C(F)(F)F)cc2C(F)(F)F)c2ccc(F)cc2)nn1    19.2%
CC1COCCN1c1cc(-c2ccnn2C)c2ccnc(-c3ccn[nH]3)c2n1 (stereo not given) + Nc1ccc(C#CCN(C(=O)Cc2ncc(C(F)(F)F)cc2C(F)(F)F)c2ccc(F)cc2)nn1    21.1%

* * *

The entries below are paired with their reported viability, T/C.
System: 935938-334-R-J1-PDC complex spheroid viability
Assay: Anticancer human tumor 935938-334-R-J1-PDC cell line growth inhibition [POLQ]
Conditions: second compound 0.316 µM; first compound 0.316 µM; active compounds read low
observed_property: viability, T/C (%)

O=C(c1cc(Cc2n[nH]c(=O)c3ccccc23)ccc1F)N1CCN(C(=O)C2CC2)CC1 + Nc1ccc(C#CCN(C(=O)Cc2ncc(C(F)(F)F)cc2C(F)(F)F)c2ccc(F)cc2)nn1    116
C#Cc1c(F)ccc2cc(O)cc(-c3ncc4c(N5CC6CCC(C5)N6)nc(OCC56CCCN5CC(F)C6)nc4c3F)c12 (stereo not given) + COC1C(OC(N)=O)C(O)C(Oc2ccc3c(O)c(NC(=O)c4ccc(O)c(CC=C(C)C)c4)c(=O)oc3c2C)OC1(C)C    121
O=C(c1cc(Cc2n[nH]c(=O)c3ccccc23)ccc1F)N1CCN(C(=O)C2CC2)CC1 + Cc1cccc(N(C)C(=O)C2C(O)CCN2c2nc(C)cc(C(F)(F)F)c2C#N)c1    89.8
CC1COCCN1c1cc(-c2ccnn2C)c2ccnc(-c3ccn[nH]3)c2n1 (stereo not given) + COC1C(OC(N)=O)C(O)C(Oc2ccc3c(O)c(NC(=O)c4ccc(O)c(CC=C(C)C)c4)c(=O)oc3c2C)OC1(C)C    19.9
CCc1cc2c(N3CCc4c(cc(Cn5ccnc5)cc4-c4cn(C)nc4C(F)(F)F)C3=O)ccnc2c(OC)n1 + COC1C(OC(N)=O)C(O)C(Oc2ccc3c(O)c(NC(=O)c4ccc(O)c(CC=C(C)C)c4)c(=O)oc3c2C)OC1(C)C    85
C#Cc1c(F)ccc2cc(O)cc(-c3ncc4c(N5CC6CCC(C5)N6)nc(OCC56CCCN5CC(F)C6)nc4c3F)c12 (stereo not given) + Nc1ccc(C#CCN(C(=O)Cc2ncc(C(F)(F)F)cc2C(F)(F)F)c2ccc(F)cc2)nn1    92
CNCc1ccc(-c2[nH]c3cc(F)cc4c3c2CCNC4=O)cc1 + COC1C(OC(N)=O)C(O)C(Oc2ccc3c(O)c(NC(=O)c4ccc(O)c(CC=C(C)C)c4)c(=O)oc3c2C)OC1(C)C    94.9
COc1cccc2c1C(=O)c1c(O)c3c(c(O)c1C2=O)CC(O)(C(=O)CO)CC3OC1CC(N)C(O)C(C)O1 (stereo not given) + COC1C(OC(N)=O)C(O)C(Oc2ccc3c(O)c(NC(=O)c4ccc(O)c(CC=C(C)C)c4)c(=O)oc3c2C)OC1(C)C    25.9
CC1COCCN1c1cc(C2(S(C)(=N)=O)CC2)nc(-c2ccnc3[nH]ccc23)n1 (stereo not given) + Nc1ccc(C#CCN(C(=O)Cc2ncc(C(F)(F)F)cc2C(F)(F)F)c2ccc(F)cc2)nn1    96.7
CC1COCCN1c1cc(-c2ccnn2C)c2ccnc(-c3ccn[nH]3)c2n1 (stereo not given) + Nc1ccc(C#CCN(C(=O)Cc2ncc(C(F)(F)F)cc2C(F)(F)F)c2ccc(F)cc2)nn1    17.4

* * *

Test system: 935938-334-R-J1-PDC complex spheroid viability
Test: Anticancer human tumor 935938-334-R-J1-PDC cell line growth inhibition [POLQ];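 further: spheroids exposed to drugs for seven days before viability read; 100% = DMSO vehicle control wells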
Conditions: second compound 10 µM; first compound 0.0316 µM; active compounds read low
Could you please mark true (1) for values of viability, T/C below 90% and false (0) for values at or above it?

Nc1ccn(C2OC(CO)C(O)C2(F)F)c(=O)n1 (stereo not given) + COC1C(OC(N)=O)C(O)C(Oc2ccc3c(O)c(NC(=O)c4ccc(O)c(CC=C(C)C)c4)c(=O)oc3c2C)OC1(C)C    true (1)
C=CC(=O)N1CCN(c2nc(=O)n(-c3c(C)ccnc3C(C)C)c3nc(-c4c(O)cccc4F)c(F)cc23)C(C)C1 (stereo not given) + COC1C(OC(N)=O)C(O)C(Oc2ccc3c(O)c(NC(=O)c4ccc(O)c(CC=C(C)C)c4)c(=O)oc3c2C)OC1(C)C    false (0)
C#Cc1c(F)ccc2cc(O)cc(-c3ncc4c(N5CC6CCC(C5)N6)nc(OCC56CCCN5CC(F)C6)nc4c3F)c12 (stereo not given) + COC1C(OC(N)=O)C(O)C(Oc2ccc3c(O)c(NC(=O)c4ccc(O)c(CC=C(C)C)c4)c(=O)oc3c2C)OC1(C)C    true (1)
O=c1[nH]cc(F)c(=O)[nH]1 + Cc1cccc(N(C)C(=O)C2C(O)CCN2c2nc(C)cc(C(F)(F)F)c2C#N)c1    false (0)
CC(C)n1c(=O)n(C)c2cnc3cc(F)c(-c4ccc(OCCCN5CCCCC5)nc4)cc3c21 + COC1C(OC(N)=O)C(O)C(Oc2ccc3c(O)c(NC(=O)c4ccc(O)c(CC=C(C)C)c4)c(=O)oc3c2C)OC1(C)C    false (0)

* * *

System: 935938-334-R-J1-PDC complex spheroid viability
Test: Anticancer human tumor 935938-334-R-J1-PDC cell line growth inhibition [POLQ];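 further: spheroids exposed to drugs for seven days before viability read; 100% = DMSO vehicle control wells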
Conditions: second compound 0.0316 µM; first compound 0.01 µM; active compounds read low
observed_property: viability, T/C (%)

COc1cccc(OCCCN)c1-c1cc(Nc2cnc(C#N)cn2)n[nH]1 + COC1C(OC(N)=O)C(O)C(Oc2ccc3c(O)c(NC(=O)c4ccc(O)c(CC=C(C)C)c4)c(=O)oc3c2C)OC1(C)C    88.9
CCc1c2c(nc3ccc(O)cc13)-c1cc3c(c(=O)n1C2)COC(=O)[C@]3(O)CC + Cc1cccc(N(C)C(=O)C2C(O)CCN2c2nc(C)cc(C(F)(F)F)c2C#N)c1    55.6
C=CCn1c(=O)c2cnc(Nc3ccc(N4CCN(C)CC4)cc3)nc2n1-c1cccc(C(C)(C)O)n1 + COC1C(OC(N)=O)C(O)C(Oc2ccc3c(O)c(NC(=O)c4ccc(O)c(CC=C(C)C)c4)c(=O)oc3c2C)OC1(C)C    135

* * *

Tested on: 935938-334-R-J1-PDC complex spheroid viability
Assay: Anticancer human tumor 935938-334-R-J1-PDC cell line growth inhibition [POLQ];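 further: spheroids exposed to drugs for seven days before viability read; 100% = DMSO vehicle control wells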
Details: second compound 10 µM; first compound 0.0316 µM; active compounds read low
observed_property: viability, T/C (%)

CNCc1ccc(-c2[nH]c3cc(F)cc4c3c2CCNC4=O)cc1 + Cc1cccc(N(C)C(=O)C2C(O)CCN2c2nc(C)cc(C(F)(F)F)c2C#N)c1    122
CCc1cc2c(N3CCc4c(cc(Cn5ccnc5)cc4-c4cn(C)nc4C(F)(F)F)C3=O)cc(C)nc2c(OC)n1 + Cc1cccc(N(C)C(=O)C2C(O)CCN2c2nc(C)cc(C(F)(F)F)c2C#N)c1    72.7
COc1cccc2c1C(=O)c1c(O)c3c(c(O)c1C2=O)CC(O)(C(=O)CO)CC3OC1CC(N)C(O)C(C)O1 (stereo not drawn) + Cc1cccc(N(C)C(=O)C2C(O)CCN2c2nc(C)cc(C(F)(F)F)c2C#N)c1    49.4

* * *

System: 935938-334-R-J1-PDC complex spheroid viability
Assay: Anticancer human tumor 935938-334-R-J1-PDC cell line growth inhibition [POLQ];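 further: spheroids exposed to drugs for seven days before viability read; 100% = DMSO vehicle control wells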
Settings: second compound 10 µM; first compound 1 µM; active compounds read low
observed_property: viability, T/C (%)

C=CCn1c(=O)c2cnc(Nc3ccc(N4CCN(C)CC4)cc3)nc2n1-c1cccc(C(C)(C)O)n1 + COC1C(OC(N)=O)C(O)C(Oc2ccc3c(O)c(NC(=O)c4ccc(O)c(CC=C(C)C)c4)c(=O)oc3c2C)OC1(C)C    24.5
CNCc1ccc(-c2[nH]c3cc(F)cc4c3c2CCNC4=O)cc1 + Nc1ccc(C#CCN(C(=O)Cc2ncc(C(F)(F)F)cc2C(F)(F)F)c2ccc(F)cc2)nn1    116
O=C(Nc1ccc(O)c(NS(=O)(=O)c2ccc(F)cc2)c1)c1ccc(-c2ccccc2)cc1 + COC1C(OC(N)=O)C(O)C(Oc2ccc3c(O)c(NC(=O)c4ccc(O)c(CC=C(C)C)c4)c(=O)oc3c2C)OC1(C)C    84.4
C#Cc1c(F)ccc2cc(O)cc(-c3ncc4c(N5CC6CCC(C5)N6)nc(OCC56CCCN5CC(F)C6)nc4c3F)c12 (centres undefined) + Cc1cccc(N(C)C(=O)C2C(O)CCN2c2nc(C)cc(C(F)(F)F)c2C#N)c1    38.6
